# system-under-test: Dickkopf-related protein 1 (Homo sapiens)
# assay-explanation: DKK1 binders on small-molecule microarrays, primary screen, biochemical, small-molecule microarray, 635 nm fluorescence scan (AID 1106);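 also: score merges emission near 667 nm with signal to noise over three replicate slides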
# condition-notes: DKK1 binding, higher = more signal
Consider the following compounds and their measured composite z-score readings.
observation-type: composite z-score

compound | system-under-test | observation-type | reported-result
COc1cc2c(cc1OC)CN(C(=O)[C@H]1[C@@H]3C(=O)O[C@@H](c4ccccc4)[C@@H](c4ccccc4)N3[C@@H](c3ccc(O)cc3)[C@]13C(=O)Nc1ccc(C#CCNC(N)=O)cc13)CC2 | Dickkopf-related protein 1 (Homo sapiens) | composite z-score | 0.596
COC(=O)[C@@]1(Cc2ccc(F)cc2)[C@H]2c3cc(C(=O)N4CCCC4)n(Cc4cc(C)n(C)n4)c3C[C@H]2CN1C(=O)c1ccccc1 | Dickkopf-related protein 1 (Homo sapiens) | composite z-score | -0.449
CC(C)(C)OC(=O)CC[C@]1(C(=O)O)N=C(c2ccc(OCCCO)cc2)O[C@H]1c1ccccc1N=[N+]=[N-] | Dickkopf-related protein 1 (Homo sapiens) | composite z-score | 0.0608
C=CC[C@@]1(C(=O)N(C)C)N=C(c2ccc(OCCCO)cc2)O[C@@H]1c1ccccc1N=[N+]=[N-] | Dickkopf-related protein 1 (Homo sapiens) | composite z-score | 0.368
O=C1C[C@]2(c3ccc([N+](=O)[O-])cc3)C(=O)N(CCN3CCOCC3)c3cc(CO)ccc3[C@H]2N1C1CCCCC1 | Dickkopf-related protein 1 (Homo sapiens) | composite z-score | -0.877
C=CCN1C(=O)[C@@]2(O[C@@H](CCO)[C@H]([Si](C)(C)c3ccc(OC)cc3)[C@H]2C)c2cc(NC(=O)c3ccc(OC)cc3)ccc21 | Dickkopf-related protein 1 (Homo sapiens) | composite z-score | 0.532
COC(=O)C(CC#Cc1ccc2c(c1)[C@]1(C(=O)N2)[C@H](c2ccc(O)cc2)N2[C@H](c3ccccc3)[C@H](c3ccccc3)OC(=O)[C@H]2[C@@H]1C(=O)Nc1nc2ccccc2s1)C(=O)OC | Dickkopf-related protein 1 (Homo sapiens) | composite z-score | 0.581
CCOC(=O)C1=CCC(c2ccc(C)cc2)N(S(=O)(=O)c2ccc(C)cc2)C1 (stereo not drawn) | Dickkopf-related protein 1 (Homo sapiens) | composite z-score | 0.0296
O=C(NCc1ccc(F)cc1)[C@H]1C[C@H]2C(=O)N[C@@H](Cc3ccccc3)C(=O)N2[C@H]1c1ccc(O)cc1 | Dickkopf-related protein 1 (Homo sapiens) | composite z-score | 0.274
C=CCOC(=O)[C@H]1[C@@H]2C(=O)O[C@@H](c3ccccc3)[C@@H](c3ccccc3)N2[C@@H](c2ccc(OCCOC(=O)[C@H]3C[C@H]4C(=O)N[C@@H](CC(C)C)C(=O)N4[C@H]3c3ccc(O)cc3)cc2)[C@]12C(=O)Nc1ccc(I)cc12 | Dickkopf-related protein 1 (Homo sapiens) | composite z-score | 1.23
COc1ccc(C(=O)O[C@H]2CC[C@]3(C)C4=C(CCC3C2(C)C)[C@]2(C)CC[C@H]([C@H](C)CCCC(C)C)[C@@]2(C)CC4)cc1 (stereo partly drawn) | Dickkopf-related protein 1 (Homo sapiens) | composite z-score | 0.458
C=C(COC)/C(=C/C[C@H](OC(=O)c1ccncc1)c1ccc(OCCO)cc1)c1cnc2ccccc2c1 | Dickkopf-related protein 1 (Homo sapiens) | composite z-score | 1.01
Cc1ccc(S[C@]2(C(=O)NC3CC3)CC(=O)N(C3Cc4ccccc4C3)[C@@H]2c2ccc(CO)cc2)cc1 | Dickkopf-related protein 1 (Homo sapiens) | composite z-score | -1.02
